- Test system: MDA-MB-231 breast
- Assay Details: NCI tumour cell line growth inhibition, 48 h
Test Readout: GI50

Value of GI50 reported for the compound O=C1C=C(Nc2ccccc2)c2ccccc2C1=O is 1.88 µM

Entry CC(C)=CCc1cc2c(cc1O)C1=C(C(=O)C3=C(NCCS3(=O)=O)C1=O)C(C=C(C)C)O2 (stereo not given) , GI50 reported as 4.18 µM

For O=C1NN2CC(c3ccccc3)=NN=C2c2ccccc21 the compound record lists GI50 as 26.4 µM

Please fill in: GI50 reported for O=C(CCCc1ccc(N(CCCl)CCCl)cc1)NCc1ccccc1 = 21.3 µM

Note to self: GI50 recorded for COc1cc(/C=C/C(=O)c2cccc(-n3cc(-c4ccccc4)[nH]c3=O)c2)cc(OC)c1OC was 2.17 µM

###

Record form. Attribute: TGI. Fill in for each entry.
- Tested on: OVCAR-5 ovarian
- Assay Details: NCI tumour cell line growth inhibition, 48 h

Form: item C/C(=C\C(=O)O[C@H]1[C@@H]2[C@H](C)CC[C@H]2[C@]2(C)O[C@@]1(C1CCCCC1)C[C@H]2OC(=O)CO)c1ccccc1 ; test system OVCAR-5 ovarian; TGI: 12.9 µM

Query O=C1NC(=O)C(c2c[nH]c3ccccc23)=C1c1c[nH]c2ccccc12 on OVCAR-5 ovarian; TGI returned: > 25 µM

Measured TGI for this entry CC(C)(C)CC(C)(C)c1ccc(OCCO)cc1 on OVCAR-5 ovarian: 27.5 µg/mL

Entry COC(=O)C(=O)C(C(=O)C(=O)Nc1ccc(Cl)c(Cl)c1)c1nc2ccc(C(=O)c3ccccc3)cc2[nH]c1=O (stereo not given) , OVCAR-5 ovarian data, TGI value: > 100 µM

Test item CCN(CC)C(=O)CCn1ccc(=O)[nH]c1=O ; OVCAR-5 ovarian; reported TGI was > 100 µM

Value sought: TGI, system OVCAR-5 ovarian, item COc1ccc(N2C(=O)c3cc([N+](=O)[O-])cnc3S2(=O)=O)cc1 . Result: > 100 µM

Form field, TGI with OVCAR-5 ovarian, item O=S1OC(c2ccccc2)(c2ccccc2)C(c2ccccc2)(c2ccccc2)O1 : > 100 µM

Readout TGI for O=C(Cc1ccccc1)NN1C(=O)C(Cl)C1c1ccc(Cl)cc1 (stereo not given) , test system OVCAR-5 ovarian, was > 100 µM

Lab note: compound C[N+]1(C)C2CC(OC(=O)C(CO)c3ccccc3)CC1C1OC12 (stereo not given) tested on OVCAR-5 ovarian; recorded TGI was > 100 µM

Item CC(NCc1c(O)ccc2c(-c3ccccc3)cc(=O)oc12)C(=O)O (stereo not given) ; assay system OVCAR-5 ovarian; TGI reported as > 100 µM

Let me check: O=C(/C=C/c1ccccc1)NC1C=Nc2ccc([N+](=O)[O-])cc2NC1=O (stereo not given) , system OVCAR-5 ovarian, measured TGI is > 100 µM

// assay OVCAR-5 ovarian, entry CCC(=C(c1ccc(OCCN2CCCCC2)cc1)c1ccc(OCCN2CCCCC2)cc1)c1ccc(Cl)cc1 , TGI value = > 16.7 µM

Measured TGI for this entry C[C@@H]1CN2[C@H]3[C@@H]1CC[C@]31CCC(=O)O[C@]1(C)[C@H]1CC[C@H]3CCC=C3[C@@H]12 on OVCAR-5 ovarian: > 30 µM

Param item: CC(C#N)(c1ccccc1)N(CCc1ccccc1)C(=O)Oc1ccccc1 (stereo not given) ; param system: OVCAR-5 ovarian; output TGI: > 100 µM

Observed TGI on OVCAR-5 ovarian, entry Cc1cn2cc(-c3cccs3)nc2s1 , equals > 100 µM

Reported OVCAR-5 ovarian TGI for item O=C(O)/C=C/c1ccc(O)c(O)c1 was > 100 µM

The measured TGI that C=C1CC[C@](C)(O)[C@@]2(C)CC[C@H]3C(=C(C)C)C(=O)C[C@]3(C)C[C@H]12 showed for OVCAR-5 ovarian is > 50 µM

TGI on OVCAR-5 ovarian for Cc1c(Cl)cccc1C(=O)Nc1nc2c(s1)CN(C(=O)Nc1cccc(C(F)(F)F)c1)CC2 is > 50 µM

Readout TGI for N=c1sc2ccccc2n1CCS (tested in a mixture with another compound) , test system OVCAR-5 ovarian, was 57.3 µM

OVCAR-5 ovarian assay, compound COc1ccc2c(c1)/C(=C/c1c(O)[nH]c(=S)[nH]c1=O)C=N2 , recorded TGI = > 100 µM
